Where these numbers come from: the supplement of paper PMC13380429

Test system: Vero E6 infected with SARS-CoV-2
Assay: morphology score (similarity to uninfected cells); higher = more like uninfected cells
Conditions: 24 h
// map morphology score onto a label; ranges interval 1: < -0.01; interval 2: ≥ -0.01 and < 0.06; interval 3: ≥ 0.06

>  <MOLECULE>
CC(C)(COP(=O)(O)OP(=O)(O)OC[C@H]1O[C@@H](n2cnc3c(N)ncnc32)[C@H](O)[C@@H]1OP(=O)(O)O)[C@@H](O)C(=O)NCCC(=O)NCCS [coenzyme-A] (10 µM)

>  <LABEL VALUE>
interval 2

$$$$
>  <MOLECULE>
COc1cc(C(=O)N(CC[C@H]2CCCN2C)C/C(C)=C/c2ccccc2F)cc(OC)c1OC (racemic) (10 µM)

>  <LABEL VALUE>
interval 2

$$$$
>  <MOLECULE>
CC(C)OC(=O)CNC(=O)[C@H](CS)NC(=O)CC[C@H](N)C(=O)O [glutathione-monoisopropyl-ester] (10 µM)

>  <LABEL VALUE>
interval 2

$$$$

Continue with the next molecule.
Ask: Determine which band this molecule sits in: c1ccc2c(c1)CN1CCCC1=N2 [desoxypeganine] (10 µM)
Result: interval 3
